Value source: patent US20160330959A1

Assay: log P by HPLC on reversed phase columns (EEC directive 79/831 Annex V.A8)
Type: physicochemical
Settings: pH 2.7, pH 2,7, 0.1% formic acid in water / acetonitrile gradient
Description: Measurement of log P values was performed according EEC directive 79/831 Annex V.A8 by HPLC (High Performance Liquid Chromatography) on reversed phase columns with the following methods: ^[a] Measurement of LC-MS was done at pH 2,7 with 0.1% formic acid in water and with acetonitrile (contains 0.1% formic acid) as eluent with a linear gradient from 10% acetonitrile to 95% acetonitrile. […]
measure-name: chromatographic logP
One number for each entry.

Recorded chromatographic logP (compound CON(C(=O)c1c(C(F)F)nn(C)c1F)C(C)Cc1c(Cl)cc(Cl)cc1Cl (stereo not shown) ): 4.29
